Reference source for all entries: the RNAGym collection of RNA variant scans (doi:10.1093/molbev/msab373)

B1: Azoarcus group I ribozyme (parent)
chain: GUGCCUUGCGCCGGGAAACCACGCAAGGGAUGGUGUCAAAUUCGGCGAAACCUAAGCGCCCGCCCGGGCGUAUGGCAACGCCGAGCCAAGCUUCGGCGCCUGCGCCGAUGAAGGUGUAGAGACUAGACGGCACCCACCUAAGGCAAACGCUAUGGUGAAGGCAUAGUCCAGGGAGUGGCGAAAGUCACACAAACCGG

Variants of: B1
measurement_protocol: reverse-splicing fitness (ratio to wild type); higher = more active; in vitro selection; Mg2+ level not given
measurement_name: reverse-splicing fitness
Kindly provide the number alone.

Example entries begin here.
{"columns": ["mutation_id", "reverse-splicing fitness"],
 "data": [
  ["A111C A120G A145C C150A C169U U176A", 0.0178],
  ["C82U A111G A120G C169U U176G", 0.00533],
  ["A120U A145G C150U C169U U176A", 0.0753],
  ["C82A A111C A120U A145G C150G C169G U176A", 0.0101],
  ["A111C A120C A145U C150G C169A", 0.00797],
  ["C82A A145G C150U", 0.544],
  ["C82A A111U C150G C169A U176G", 0.00757],
  ["C82G A120G A145G C150A C169A", 0.0126],
  ["A111G A120U A145U C150A C169U", 0.0112],
  ["C82U A111C A120C A145G C150G C169U", 0.00816]
]}

IN: Given the entry C82U A111U A145G C150U C169G U176A , report its measured reverse-splicing fitness.
OUT: 0.0133

IN: // same read-out, input: C82U A111G A120U A145C C169G
OUT: 0.00247

IN: // same read-out, input: C82G A111G A120U C150U C169G U176C
OUT: 0.00412
